All values here come from ChEMBL document CHEMBL1127087.

Experiment: Ratio between diazepam-insensitive (DI) site / diazepam-sensitive (DS) site
Measured quantity: Ratio
Response field accepts a number only; no unit should be typed.

See these solved cases before continuing.
Chem smiles: Cc1noc(-c2ncn3c2CN(Cc2ccccc2)C(=O)c2cc(Cl)ccc2-3)n1
Observed result: 1.3

Chem smiles: CCOC(=O)c1ncn2c1CN(Cc1ccc(OC)cc1OC)C(=O)c1ccccc1-2
Observed result: 24

Okay, next one:
INPUT: Ratio lookup needed for CCOC(=O)c1ncn2c1CN(C)C(=O)c1c(Cl)cccc1-2 , thanks.
OUTPUT: 100

----------
Target: GABA-A receptor; anion channel
Test: […] from diazepam-insensitive GABA-A benzodiazepine receptor of rat cerebellar membrane
Catalogue of IC50 readings, one per entry.

Chem smiles: Cc1noc(-c2ncn3c2CN(Cc2ccccc2)C(=O)c2ccccc2-3)n1
Assayed target: GABA-A receptor; anion channel
Measured quantity: IC50
Observed result: > 10 µM

Okay, next one:
INPUT: IC50 lookup needed for Cc1nnc(-c2ncn3c2CN(Cc2ccccc2)C(=O)c2ccccc2-3)o1 , thanks.
OUTPUT: > 10 µM

----------
Target: GABA-A receptor; anion channel
Experiment: Displacement of [3H]flunitrazepam from diazepam-sensitive GABA-A benzodiazepine receptor of rat cortical membrane
Measured quantity: IC50 (µM)
// note: answer is a bare numeric in µM

See these solved cases before continuing.
Chem smiles: CCOC(=O)c1ncn2c1CN(CCc1ccccc1)C(=O)c1ccccc1-2
IC50 (µM): 0.34
--
Chem smiles: CN1Cc2c(N=C=S)ncn2-c2ccccc2C1=O
IC50 (µM): 0.739
--
Chem smiles: CCOC(=O)c1ncn2c1CN(Cc1ccccc1)C(=O)c1ccccc1-2
IC50 (µM): 0.0093

INPUT: IC50 lookup needed for Cc1noc(-c2ncn3c2CN(Cc2ccccc2)C(=O)c2ccccc2-3)n1 , thanks.
OUTPUT: 0.0343

INPUT: IC50 lookup needed for CCOC(=O)c1ncn2c1CN(Cc1ccccc1)C(=O)c1cc(Cl)ccc1-2 , thanks.
OUTPUT: 0.0378

----------
Target: GABA-A receptor; anion channel
Assay: Displacement of [3H]flunitrazepam from diazepam-sensitive GABA-A benzodiazepine receptor of rat cortical membrane
Measured quantity: pIC50
Kindly note that pIC50 refers to -log10 of the concentration in mol/L and answer with the value alone.

See these solved cases before continuing.
Chem smiles: C=CCN1Cc2c(C(=O)OCC)ncn2-c2ccccc2C1=O
pIC50: 6.80

Chem smiles: Cc1noc(-c2ncn3c2CN(Cc2ccccc2)C(=O)c2cc(Cl)ccc2-3)n1
pIC50: 6.47

Chem smiles: CCCN1Cc2c(C(=O)OCC)ncn2-c2ccccc2C1=O
pIC50: 6.62

INPUT: pIC50 lookup needed for CCOC(=O)c1ncn2c1CN(Cc1ccc(OC)cc1OC)C(=O)c1ccccc1-2 , thanks.
OUTPUT: 7.63

INPUT: pIC50 lookup needed for CCOC(=O)c1ncn2c1CN(Cc1ccccc1)C(=O)c1c(Cl)cccc1-2 , thanks.
OUTPUT: 8.62

INPUT: pIC50 lookup needed for CN1Cc2c(C3=NCCO3)ncn2-c2ccccc2C1=O , thanks.
OUTPUT: 6.16

INPUT: pIC50 lookup needed for CCOC(=O)c1ncn2c1CNC(=O)c1ccccc1-2 , thanks.
OUTPUT: 6.79

INPUT: pIC50 lookup needed for Cc1noc(-c2ncn3c2CN(Cc2ccccc2)C(=O)c2c(Cl)cccc2-3)n1 , thanks.
OUTPUT: 7.82
